Measured OD(A570 nm) of individual entries
# Test system: MCF-7
# assay-comment: MTT survival assay, breast cancer cell line (MCF-7)
# Type: cell-based, human
# run-conditions: 6.25 μg/ml

>  <molecule>
O=C(Nc1ccnc2[nH]ccc12)c1cc2ccccc2s1

>  <OD(A570 nm)>
0.711

$$$$
>  <molecule>
Cc1ccc(S(=O)(=O)NCC(=O)NCC(c2ccccc2)c2c[nH]c3ccccc23)cc1 (stereo not shown)

>  <OD(A570 nm)>
0.708

$$$$
>  <molecule>
COc1ccccc1NC(=O)CSc1nc(-c2ccccc2)nc2ccccc12

>  <OD(A570 nm)>
0.791

$$$$
>  <molecule>
O=C(CSc1cc(COc2ccc(Br)cc2)[nH]n1)c1ccccc1

>  <OD(A570 nm)>
0.624

$$$$
